For each of the binders below, state its EC50.
# Measurement target: T1, human CD112R antigen protein huCD112R-His (Acro Biosysterm, PVG-H52H4) (human, UniProt Q6DKI7 41-171)
# T1 construct: purchased; also called human antigen protein; not shown: His tag
# T1 sequence (looked up): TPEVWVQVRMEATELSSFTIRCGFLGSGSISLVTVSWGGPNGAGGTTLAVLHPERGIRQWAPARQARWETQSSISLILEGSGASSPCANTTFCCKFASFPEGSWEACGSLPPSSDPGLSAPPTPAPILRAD
# Experiment description: ELISA, huCD112R-His coated on plate
Please state the figure in nM; there is no need to write the unit.

Request: # lookup: EC50 of C136 (antibody, human IgG1, kappa, V domains shown) VH: DVQLVESGGGLVKPGGSLKLSCAASGFSFSENYMYWVRQTPEKRLEWVATISDGASYTYYPDNVKGRFTISRDTAKNNLYLQMSHLKSEDTAMYYCTRDELIAPFAYWGQGTLVTVSA VL: DIVMTQSHKFMSTSVGDRVSITCKASQDVGTAVAWFQQKPGQSPKLLIYWASTRHTGVPDRFTGSGSGTDFTLTISNVQSEDLADYFCQQYNSYPWTFGGGTKLEIKR
Response: 0.039

Request: # lookup: EC50 of C123 (antibody, human IgG1, kappa, V domains shown) VH: EVQLVESGGGLVKPGGSLKLSCAASGFTFSNFAMSWVRQTPAMRLESVATIVNGGINTYYPDTVKGRFTVSRDNAKNTLYLQMSSLRSEDTAIYYCARHDDFLYYAMDYWGQGTSVTVSS VL: QIVLTQSPAIMSASPGEKVTMTCSASSSVSYMFWYQQKPGSSPRLLIYDTSNLASGVPVRFSGSGSGTSYSLTISRLEAEDAATYYCQQWTSYPLTFGAGTKLDLKR
Response: 0.035

Request: # lookup: EC50 of C22 (antibody, human IgG1, kappa, V domains shown) VH: EVQLQQSGPEPVKPGASVKISCKASGYTFTDYNIHWVRQSHGKSLEWIGYIYPYNGGAGYNQKFKSKATLTVDSSSSTAYMELRSLTSEDSAVYYCAREELRRDYGMDYWGQGTSVTVSS VL: DIQMTQSPASLSASVGETVTITCRASENIYSYLAWYQQKQGKSPQLLVYNAKTLAEGVPSRFSGSGSGTQFSLKINSLQPEDFGSYYCQHHYGTPYTFGGGTKLETKR
Response: 0.029

Request: # lookup: EC50 of C129 (antibody, human IgG1, kappa, V domains shown) VH: QVQLQQSGAELMTPGSSVKLSCKATGYTFTDYWIEWVKKRPGHGLEWIGEILPGYISTNYNEKFKDKATFTADTSSNTTYMQLSSLTSEDSAVYYCVLIVTTYYYFMDYWGQGTSVTVSS VL: QIVLTQSPAIMSASPGEKVTITCSASSSVTYMHWFQQKPGTSPKLWIYSTSNLASGVPVRFSGSGSGTSYSLTISRMEAEDAATYYCQQRSSYPWTFGGGTKLEIKR
Response: 0.034

Request: # lookup: EC50 of C31 (antibody, human IgG1, kappa, V domains shown) VH: QIQLQQSGPELVKPGASVKISCKASGYTFTDYYIAWVKQRPGQGLEWIGWIYLGSGHTMYNENFKGKATLTVDTSSSTAYMQLSSLTSEDSAVYFCARDSFYAMDYWGQGTSVTVSS VL: DIVMTQSQKFMSTTVGDRVSITCKASQNVGTAVAWYQQKPGQSPKLLIYSASNRYTGVPDRFTGSGSGTDFTLTISNMQSEDLADYFCQQYSTYLTFGAGTKLELKR
Response: 0.038

Request: # lookup: EC50 of C4 (antibody, human IgG1, kappa, V domains shown) VH: EVQLQQSGPELVKPGASVKISCKASGYTFTDYFMNWVKQSHGKSLEWIGDIIPNNDSPNYNQKFKGKATLTVDKSSNTAYMELRSLTSEDSAVYYCASGYFDVWGTGTTVTVSS VL: DIVMTQSPSSLSVSAGEKVTMSCKSSQSLLNSGNQKNFLAWYQQKPGQPPKLLIYGTSTRESGVPDRFTGSGSGTDFTLTISSVQAEDLAVYYCQNDHSYPWTFGGGTKLEIKR
Response: 0.032

Request: # lookup: EC50 of C121 (antibody, human IgG1, kappa, V domains shown) VH: EVQLQQSGPEVVKPGASVKISCKASGNTFTDYFINWVKQSHGKSLEWIGDINPDNGGTNYNQKFKGKATLTVDKSSGTAFMGLRSLTSEDSAVYYCATLYFDYWGQGTSLTVSS VL: DIVMTQSPSSLSVSAGEKVTMSCKSSQSLLNSGNQKNYLAWYQQKPGQPPKLLIYGASTRESGVPDRFTGSGSGTDFTLTISSVQAEDLAVYYCQNAHSSPYTFGGGTRLEIKR
Response: 0.037

Request: # lookup: EC50 of C21 (antibody, human IgG1, kappa, V domains shown) VH: EVQLQQSGAELVKPGASVKLSCTASGFNIKDIYMHWLKQRPEQGLEWIGRVDPTNGNSEYDPRFQGKATLTADTSSNIAYLQLSSLTSEDTAVYYCARFGIYPYFDYWGQGTTLTVSS VL: SIVMTQTPKFLLVSAGDRVTITCKASQSVNKAVVWYQQKPGQSPKLLINYASNRYTGVPDRFTGSGYGTDFTFSISTVQAEDLAVYFCQQDYSSPWTFGGGTKLEIKR
Response: 0.066

Request: # lookup: EC50 of C11 (antibody, human IgG1, kappa, V domains shown) VH: EVQLQQSGPELVKPGASVKISCKASGYTFTDYFMNWVRQSHGKSLEWIGDIHPNNGSPNYNQKFKGKATLTVGKSSSTAYMELRSLTSEDSAVYYCATGYFDVWGTGTTVTVSS VL: DIVMTQSPSSLSVSAGEKVTMSCKSSQSLLNSGNQKNYLAWYQQKPGQPPKLLIYGASTRESGVPDRFTGSGSGTDFTLTISSVQAEDLAVYYCQNDHSYPWTFGGGTKLEIKR
Response: 0.056

Request: # lookup: EC50 of C71 (antibody, human IgG1, kappa, V domains shown) VH: EVILVESGGGLVKPGGSRKLSCAASGFTFSSYFMSWVRQTPEKRLEWVATISGGGDNTYYPDSVKGRFTISRDNAKNTLYLQMSSLRSEDTALYYCARHEDYEWYAMDYWGQGTSVTVSS VL: QIVLTQSPAIMSTSPGEKVTMTCSASSSVSYIYWYQQKPGSSPRLLIYDTSNLASGVPVRFSGSGSGTSYSLTISRMEAEDAATYYCQQWTSYPLTFGAGTKLELKR
Response: 0.037

The measured values listed here are drawn from patent EP4644419A1.
